Reference source: the supplement of paper PMC3334620

Biological target: Zap1 (UniProt P47043)
Sequence: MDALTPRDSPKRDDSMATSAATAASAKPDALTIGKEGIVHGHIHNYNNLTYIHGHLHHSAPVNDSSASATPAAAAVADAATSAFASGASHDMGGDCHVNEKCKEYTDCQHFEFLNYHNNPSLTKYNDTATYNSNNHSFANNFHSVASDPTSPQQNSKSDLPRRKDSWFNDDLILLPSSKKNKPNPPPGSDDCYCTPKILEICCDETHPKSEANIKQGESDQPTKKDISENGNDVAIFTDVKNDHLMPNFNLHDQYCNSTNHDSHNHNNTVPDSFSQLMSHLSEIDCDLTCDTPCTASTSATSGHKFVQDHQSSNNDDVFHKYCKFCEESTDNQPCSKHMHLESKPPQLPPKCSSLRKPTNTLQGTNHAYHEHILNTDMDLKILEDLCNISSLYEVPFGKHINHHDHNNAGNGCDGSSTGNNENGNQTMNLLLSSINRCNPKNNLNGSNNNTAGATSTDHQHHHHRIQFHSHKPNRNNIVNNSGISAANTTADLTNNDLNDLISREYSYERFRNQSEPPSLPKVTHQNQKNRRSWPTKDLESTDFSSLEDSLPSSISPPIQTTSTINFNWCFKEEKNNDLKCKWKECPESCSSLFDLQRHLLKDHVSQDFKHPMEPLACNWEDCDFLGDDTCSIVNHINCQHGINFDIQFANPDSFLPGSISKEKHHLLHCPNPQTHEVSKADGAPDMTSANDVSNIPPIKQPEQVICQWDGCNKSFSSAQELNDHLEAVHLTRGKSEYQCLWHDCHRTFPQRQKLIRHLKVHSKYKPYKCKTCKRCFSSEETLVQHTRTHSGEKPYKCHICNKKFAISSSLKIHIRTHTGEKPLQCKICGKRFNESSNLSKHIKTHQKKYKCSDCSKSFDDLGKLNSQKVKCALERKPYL
Experiment: PBM E-score (8-mer binding enrichment) (E-score (-0.5 to 0.5)); higher = stronger / more preferred TF binding
Conditions: protein concentration: 200 nM; construct: GST-full length
Whole data set: some 33,000 sequences, median “E-score (-0.5 to 0.5)” near -0.021, cut for the highest 2% near 0.32. Many of the other results were omitted from the sample, so the highest values are more common in it than they were.
measurementType: PBM E-score

AGAGAATC : -0.152
CGGAACTA : 0.141
ACCCTCTC : 0.121
GCGAACCC : 0.00303
CACGGGTA : 0.237
CGGTGACG : 0.0241
AACGGTTC : 0.107
GGGTGACC : 0.385
CCAACAGG : 0.0645
CTACCAAG : 0.0784
CGGTGACC : 0.327
CTGTACTA : 0.0369
AGGCTGTC : -0.202
GCAGCTGC : -0.246
GACGGGTA : 0.0159
AACCTCAA : 0.263
CACCTCTC : -0.242
CTTAGGGC : 0.0876
GTATAGCA : -0.104
AGGTGACA : 0.0888
CACGGTTC : -0.13
AACCTCTA : 0.351
AACCTCTC : 0.349
AAAGGACA : 0.177
TGGATTAA : 0.0758
AGGTGACG : 0.182
CATGACCG : 0.177
GTGCTGTA : -0.06
TCTCGCCA : -0.206
AACGGGTA : 0.375
CATGACCA : 0.284
TACCTCTA : 0.347
GATGACCC : 0.403
GACGGTTA : 0.305
CACGGTCA : 0.262
CATAGTGC : -0.16
AATGACCC : 0.3
GTGTTGAA : -0.0764
